Target: full-length recombinant rat vitamin D receptor (Rattus norvegicus)
Construct: Full-length recombinant rat receptor was expressed in E. coli BL21 (DE3) Codon Plus RIL cells; histidine tag (C)
Sequence (P13053 whole entry): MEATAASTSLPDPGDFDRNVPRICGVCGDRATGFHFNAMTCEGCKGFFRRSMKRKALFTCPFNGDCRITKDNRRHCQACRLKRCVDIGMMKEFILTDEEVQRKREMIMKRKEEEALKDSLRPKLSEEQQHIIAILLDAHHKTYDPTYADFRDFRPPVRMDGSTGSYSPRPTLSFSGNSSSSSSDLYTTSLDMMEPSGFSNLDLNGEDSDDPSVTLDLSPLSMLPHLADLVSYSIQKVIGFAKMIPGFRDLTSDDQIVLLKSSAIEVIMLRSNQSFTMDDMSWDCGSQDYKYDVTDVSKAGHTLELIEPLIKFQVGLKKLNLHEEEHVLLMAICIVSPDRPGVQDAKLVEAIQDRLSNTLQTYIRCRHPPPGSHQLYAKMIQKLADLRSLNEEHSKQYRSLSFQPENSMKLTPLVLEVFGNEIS
Assay: Vitamin D receptor binding (competition with [3H]-1,25(OH)2D3)
Conditions: full-length recombinant rat VDR; FIG. 1
measure-name: Ki (nM)
Supply the numeric figure in nM, leaving out any unit text.

Please report Ki with full-length recombinant rat vitamin D receptor (Rattus norvegicus) for item `C=C1[C@H](O)CC(=C/C=C2\CCC[C@]3(C)[C@@H](C(=C)CC)CC[C@@H]23)C[C@H]1O` .
0.08

Data origin: patent US20130178449A1
